These measurements were taken from paper PMC7619001.

Target: CTP synthase (CTPS) (Drosophila melanogaster)
Construct: full-length, C-terminal 6xHis-tag
Test: enzyme kinetics at […] nm, Hill fit (KA […])
Assay type: biochemical
measurementKind: Kd
Output should be the measured figure followed by the unit it is expressed in.

Give CTP synthase (CTPS) (Drosophila melanogaster) Kd for "Nc1ncnc2c1ncn2[C@@H]1O[C@H](COP(=O)(O)OP(=O)(O)OP(=O)(O)O)[C@@H](O)[C@H]1O"
60 µM

----------
Biological target: CTP synthase (CTPS) (Drosophila melanogaster, UniProt Q9VUL1)
Construct: full-length, C-terminal 6xHis-tag
Assay: cryo-EM structure; activation kinetics (KA = dissociation constant of the enzyme-regulator complex)
Format: biochemical
measurementKind: pKd
On this scale, pKd is minus log10 of a concentration expressed in M (mol/L).

Recorded pKd for "Nc1nc2c(ncn2[C@H]2C[C@H](O)[C@@H](COP(=O)(O)OP(=O)(O)OP(=O)(O)O)O2)c(=O)[nH]1" , please?
3.28

----------
Biological target: CTP synthase (CTPS) (Drosophila melanogaster, UniProt Q9VUL1)
Construct: full-length, C-terminal 6xHis-tag
Test: enzyme kinetics at […] nm, Hill fit (KA […])
Assay type: biochemical
measurementKind: pKd
In plain terms, pKd is the concentration in mol/L turned into minus its base-10 logarithm.

Returns the measured pKd for the input molecule. Input: "O=c1ccn([C@H]2C[C@H](O)[C@@H](COP(=O)(O)OP(=O)(O)OP(=O)(O)O)O2)c(=O)[nH]1"
3.55

----------
Molecular target: CTP synthase (CTPS) (Drosophila melanogaster, UniProt Q9VUL1)
Construct: full-length, C-terminal 6xHis-tag
Sequence (Q9VUL1 1-627): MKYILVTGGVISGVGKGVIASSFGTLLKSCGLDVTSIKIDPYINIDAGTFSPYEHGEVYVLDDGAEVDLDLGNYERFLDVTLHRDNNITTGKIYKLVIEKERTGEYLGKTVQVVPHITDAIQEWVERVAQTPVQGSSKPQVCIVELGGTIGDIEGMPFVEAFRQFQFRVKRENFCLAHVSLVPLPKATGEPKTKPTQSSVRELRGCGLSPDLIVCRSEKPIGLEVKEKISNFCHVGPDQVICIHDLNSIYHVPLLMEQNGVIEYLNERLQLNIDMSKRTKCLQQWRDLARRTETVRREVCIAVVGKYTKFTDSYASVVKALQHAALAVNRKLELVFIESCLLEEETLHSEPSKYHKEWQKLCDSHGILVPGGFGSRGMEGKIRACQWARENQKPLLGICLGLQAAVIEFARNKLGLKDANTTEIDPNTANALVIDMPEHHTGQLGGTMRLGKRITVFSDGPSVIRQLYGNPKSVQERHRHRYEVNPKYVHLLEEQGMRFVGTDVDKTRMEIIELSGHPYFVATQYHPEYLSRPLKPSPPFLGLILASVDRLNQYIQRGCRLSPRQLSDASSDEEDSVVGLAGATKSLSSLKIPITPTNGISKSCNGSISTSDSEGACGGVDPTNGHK
Assay: activation kinetics (KA = dissociation constant of the E·GTP complex)
Format: biochemical
measurementKind: pKd
pKd here: minus log base 10 of the concentration, concentration in moles per litre.

# get_value(readout='pKd', item= Nc1nc2c(ncn2[C@@H]2O[C@H](COP(=O)(O)OP(=O)(O)OP(=O)(O)O)[C@@H](O)[C@H]2O)c(=O)[nH]1 [GTP] )
4.29
